Consider the following molecules; for each one, report its LD50 at 168 h.
Experiment: Acute oral toxicity (ALD50)
Assay type: in vivo
Conditions: mouse, in vivo, po, mice, suspension in 1% gum tragacanth; read-out: 7-Day ALD50

| MOLECULE | RESULT |
| --- | --- |
| CCCCC(CC)CNc1cc[n+](CCCCCCCCCCCC[n+]2ccc(NCC(CC)CCCC)cc2)cc1 (centres unmarked) [Example 41C] | > 1000 mg/kg |
| CCCCCCCCNc1cc[n+](CCCCCCCCCC[n+]2ccc(NCCCCCCCC)cc2)cc1 | > 1000 mg/kg |
| CCCCCCCNc1cc[n+](CCCCCCCCCCCCCC[n+]2ccc(NCCCCCCC)cc2)cc1 | 1000 mg/kg |

Dear reader, for each entry below, please note its LD50 at 168 h.
1. CCCCCCCCNc1cc[n+](CCCCCC[n+]2ccc(NCCCCCCCC)cc2)cc1
2. CCCCC(CC)CNc1cc[n+](CCCCCCCCCC[n+]2ccc(NCC(CC)CCCC)cc2)cc1 (centres unmarked)
3. CCCCCCCNc1cc[n+](CCCCCCCCC[n+]2ccc(NCCCCCCC)cc2)cc1
4. CCCCC(CC)CNc1cc[n+](CCCCCCCC[n+]2ccc(NCC(CC)CCCC)cc2)cc1 (centres unmarked)
5. CCCCCCCNc1cc[n+](CCCCCCCCCCCC[n+]2ccc(NCCCCCCC)cc2)cc1

> 1000 mg/kg
> 1000 mg/kg
> 1000 mg/kg
> 1000 mg/kg
1000 mg/kg

###

Test system: E. Coli ATCC 8739
Test: Effect of serum on bacteriostatic activity (serial tube dilution test)
Type: cell-based, Escherichia coli
Details: Escherichia coli, ATCC8739; 40% heat inactivated horse serum; read-out: MIC E. Coli ATCC 8739 40% Serum
MEASUREMENT_NAME: MIC (µg/mL)
Numbers only, in µg/mL.

| COMPOUND | MIC [µg/mL] |
| --- | --- |
| CCCCCCCCNc1cc[n+](CCCCCCCCCC[n+]2ccc(NCCCCCCCC)cc2)cc1 [Example 9D] | 62.5 |
| CCCCCCNc1cc[n+](CCCCCCCCCCCCCC[n+]2ccc(NCCCCCC)cc2)cc1 [Example 5C] | 25 |

# batch: return MIC for each of the 4 compounds below
1. CCCCCCCCNc1cc[n+](CCCCCCCC[n+]2ccc(NCCCCCCCC)cc2)cc1 [Example 11]
2. CCCCCCCNc1cc[n+](CCCCCCCCCCCCCC[n+]2ccc(NCCCCCCC)cc2)cc1 [Example 1D]
3. CCCCCCCNc1cc[n+](CCCCCCCCCCCC[n+]2ccc(NCCCCCCC)cc2)cc1 [Example 3]
4. CCCCCCCNc1cc[n+](CCCCCCCCC[n+]2ccc(NCCCCCCC)cc2)cc1 [Example 24]

1: 31.2; 2: 25; 3: 25; 4: 7.8

Lookup: MIC / E. Coli ATCC 8739 / CCCCCCNc1cc[n+](CCCCCCCCCC[n+]2ccc(NCCCCCC)cc2)cc1 [Example 33] 3.9

###

Tested on: S. pyogen. C203
Assay: In vitro antibacterial activity, MIC (modified Autotiter method)
Format: cell-based, Streptococcus pyogenes
Conditions: Streptococcus pyogenes, 20 h, 18-20 hours at 37° C.; read-out: MIC S. pyogen. C203
Threshold-based label: MIC under 1 µg/mL gives true (1), MIC not under 1 µg/mL gives false (0).

# count of solved cases: 4
| COMPOUND | CLASS_LABEL |
| --- | --- |
| CCCCC(CC)CNc1cc[n+](CCCCC[n+]2ccc(NCC(CC)CCCC)cc2)cc1 (stereo not drawn) [Example 53] | true (1) |
| CCCCC(CC)CNc1cc[n+](CCCCCCCC[n+]2ccc(NCC(CC)CCCC)cc2)cc1 (stereo not drawn) [Example 56] | true (1) |
| CCCCCCNc1cc[n+](CCCCCCC[n+]2ccc(NCCCCCC)cc2)cc1 [Example 18] | true (1) |
| CCCNc1cc[n+](CCCCCCCCCC[n+]2ccc(NCCC)cc2)cc1 [Example 30] | false (0) |

Given CCCCCCCCCCCCNc1cc[n+](CCCCCCCC[n+]2ccc(NCCCCCCCCCCCC)cc2)cc1 [Example 72] , is recorded MIC strictly lower than 1 µg/mL? false (0)

Is the reported MIC for Clc1ccc(Nc2cc[n+](CCCC[n+]3ccc(Nc4ccc(Cl)cc4)cc3)cc2)cc1 [Example 76C] strictly below 1 µg/mL? false (0)

Regarding CCCCC(CC)CNc1cc[n+](CCCCCCC[n+]2ccc(NCC(CC)CCCC)cc2)cc1 (stereo not drawn) [Example 55] , kindly confirm whether its MIC is beneath 1 µg/mL. true (1)

Could you please tell me whether MIC recorded for CCCCCCNc1cc[n+](CCCCCC[n+]2ccc(NCCCCCC)cc2)cc1 [Example 17] is less than 1 µg/mL? false (0)

MIC strictly < 1 µg/mL for this compound? CCCCCCCCCCCCNc1cc[n+](CCCCCCCCCC[n+]2ccc(NCCCCCCCCCCCC)cc2)cc1 [Example 74] false (0)

###

So I've got a bunch of compounds here, and I need their MIC E. coli Vogel values.
Test system: E. coli Vogel
Assay: In vitro antibacterial activity, MIC (modified Autotiter method)
Format: cell-based, Escherichia coli
Conditions: 18-20 hours at 37° C.
Experimental: The antibacterial and antifungal activity of representative examples of the compounds of Formula I was determined using a modification of the Autotiter method described by Goss, et al. Applied Microbiology 16 (9) 1,414-1,416 (1968) in which a 1,000 mcg./ml. solution of the test compound is prepared. To the first cup of the Autotray is added 0.1 ml. of the test solution. […]
Numbers only, in µg/mL.

Before answering, review these 3 worked examples.
| COMPOUND | MIC E. coli Vogel, µg/mL |
| --- | --- |
| CCCCCCCNc1cc[n+](CCCCCC[n+]2ccc(NCCCCCCC)cc2)cc1 [Example 62C] | 3.9 |
| CCCCCCCNc1cc[n+](CCCCCCCCC[n+]2ccc(NCCCCCCC)cc2)cc1 [Example 25] | 1.0 |
| CCCCCCNc1cc[n+](CCCCCCCCCCCCCC[n+]2ccc(NCCCCCC)cc2)cc1 [Example 6] | 1.0 |

Request the reported MIC E. coli Vogel associated with CCCCCCCCCNc1cc[n+](CCCCCC[n+]2ccc(NCCCCCCCCC)cc2)cc1 [Example 48] 1.95

###

System: young adult male Swiss-Webster strain albino mice
Experiment: Acute oral toxicity (ALD50)
Assay type: in vivo
Conditions: 500 mg/kg oral, suspension in 1% G.T.
Experimental: The acute oral toxicity (ALD50) of several representative examples was determined as follows: Groups of 3 young adult male Swiss-Webster strain albino mice were fasted approximately 4 hours before medication and then medicated once orally by stomach tube.
MEASUREMENT_NAME: Mortality 24 Hrs

| MOLECULE | MEASUREMENT_NAME | RESULT |
| --- | --- | --- |
| CCCCC(CC)CNc1cc[n+](CCCCCCCCCC[n+]2ccc(NCC(CC)CCCC)cc2)cc1 (centres unmarked) [Example 58] | Mortality 24 Hrs | 0/3 |
| CCCCCCCNc1cc[n+](CCCCCCCCC[n+]2ccc(NCCCCCCC)cc2)cc1 [Example 24] | Mortality 24 Hrs | 0/3 |
| CCCCCCCNc1cc[n+](CCCCCCCCCCCCCC[n+]2ccc(NCCCCCCC)cc2)cc1 [Example 2] | Mortality 24 Hrs | 0/3 |
| CCCCCCCCNc1cc[n+](CCCCCCCCCC[n+]2ccc(NCCCCCCCC)cc2)cc1 [Example 9D] | Mortality 24 Hrs | 0/3 |
| CCCCCCNc1cc[n+](CCCCCCCCCCCCCC[n+]2ccc(NCCCCCC)cc2)cc1 [Example 5C] | Mortality 24 Hrs | 0/3 |

Report Mortality 24 Hrs for each item below.
1. CCCCCCCNc1cc[n+](CCCCCCCCCCCCCC[n+]2ccc(NCCCCCCC)cc2)cc1 [Example 1D]
2. CCCCC(CC)CNc1cc[n+](CCCCCCCC[n+]2ccc(NCC(CC)CCCC)cc2)cc1 (centres unmarked) [Example 56]

1. 1/3
2. 0/3

GET /values?readout=Mortality 24 Hrs&system=young adult male Swiss-Webster strain albino mice&item= CCCCCCCCNc1cc[n+](CCCCCCCCC[n+]2ccc(NCCCCCCCC)cc2)cc1 [Example 44A] 0/3

###

Tested on: T. menta. 9129
Test: In vitro antifungal activity, MIC (modified Autotiter method)
Type: cell-based, Trichophyton mentagrophytes
Settings: 18-20 hours at 37° C.
Provide the reported MIC T. menta. 9129 of each item.
Numbers only, in µg/mL.

Example molecules with recorded MIC T. menta. 9129:
| MOLECULE | MEASUREMENT_NAME | RECORDED_NUMBER |
| --- | --- | --- |
| CCCCCCNc1cc[n+](CCCCCCCCCCCC[n+]2ccc(NCCCCCC)cc2)cc1 [Example 8] | MIC T. menta. 9129 | 1.0 |
| CCCCCCCNc1cc[n+](CCCCCCCCCCCCCC[n+]2ccc(NCCCCCCC)cc2)cc1 | MIC T. menta. 9129 | 0.77 |
| CCCCCCCCNc1cc[n+](CCCCCC[n+]2ccc(NCCCCCCCC)cc2)cc1 | MIC T. menta. 9129 | 1.0 |
| CCCCCCCCNc1cc[n+](CCCCCCCCCC[n+]2ccc(NCCCCCCCC)cc2)cc1 [Example 10C] | MIC T. menta. 9129 | 1.0 |
| CCCCCCCNc1cc[n+](CCCCCCCCC[n+]2ccc(NCCCCCCC)cc2)cc1 | MIC T. menta. 9129 | 1.0 |

Dear colleague, could you send me MIC T. menta. 9129 for each of the items below? Thanks.
1. CCCCCCCNc1cc[n+](CCCCCC[n+]2ccc(NCCCCCCC)cc2)cc1 [Example 62C]
2. CCCCCCCCCNc1cc[n+](CCCCCC[n+]2ccc(NCCCCCCCCC)cc2)cc1
3. CCCCCCCCNc1cc[n+](CCCCCCCCCC[n+]2ccc(NCCCCCCCC)cc2)cc1 [Example 9D]

[3.9, 1.0, 1.0]
